The following sequences are shown together with reported ETAG (OD) values.
Test system: E-tag antibody
ASSAY TEXT: ELISA analysis of phage on antibody raised against ETAG (positive control)
ASSAY CONTEXT: peptide binding to E-tag antibody; phage ELISA units read at 405 nm
Numeric answer only, unit OD assumed.

Here's what some known entries look like.
• LVIGQRSFLSACSLFDGFCV (DGI-2-20R-4-H814; listed as Escherichia coli) = 13.5
• MGVVLECEGGWSIPGQTCYF (DGI-2-20R-3-C7; listed as Escherichia coli) = 18.0
• RGSLLLTLPRLSGAVGTAYG (DGI-2-20F-PP-B3; listed as Escherichia coli) = 11.7
• RDTTSQWSWISRGWEFPGWR (DGI-2-20R-3-C2; listed as Escherichia coli) = 11.9
• FSSTGILLRSGRATAVGHVT (DGI-2-20F-3-A6; listed as Escherichia coli) = 13.2

Note down ETAG (OD) recorded for HSGNRQSGSRRTHLLNIFCSSDTFVFPGWSAYLSRVCPGD (DGI-2-40F-3-B122; listed as Escherichia coli) 11.0

Note down ETAG (OD) recorded for LWRRWSEGQLLGDGELRGDG (DGI-2-20R-3-B52; listed as Escherichia coli) 15.8

Note down ETAG (OD) recorded for FGRDGDGIQRRQGGFSWVGDR (DGI-2-20F-PP-E2; listed as Escherichia coli) 11.6

The measurements presented in this section are drawn from patent US7056679B2.
